# target: integrin αIIbβ3 (Homo sapiens, UniProt P08514)
# experiment: tryptophan fluorescence quenching (Stern-Volmer)
Hi there, I'd appreciate the recorded Kd for every entry that follows.

Q: # get_value(readout='Kd', item= Ac-MRGDH-NH2 (also: Met and His coordinated to Λ-Ru(Ph2phen)2, Cl2 salt) [Λ-[Ru(Ph2phen)2(Ac-MRGDH-NH2)]Cl2 (Λ-[1]Cl2)] )
Ans: 61 nM

Q: # get_value(readout='Kd', item= Ac-MRGDH-NH2 (also: Met and His coordinated to Δ-Ru(Ph2phen)2, Cl2 salt) [Δ-[Ru(Ph2phen)2(Ac-MRGDH-NH2)]Cl2 (Δ-[1]Cl2)] )
Ans: 83 nM

Q: # get_value(readout='Kd', item= Ac-MRADH-NH2 (also: Met and His coordinated to Δ-Ru(Ph2phen)2, dichloride salt) [Δ-[Ru(Ph2phen)2(Ac-MRADH-NH2)]Cl2 (Δ-[3]Cl2)] )
Ans: 112 nM
